Molecular target: AhR (Homo sapiens, UniProt P35869)
Assay: AhR antagonism in U937 cells (Promega P450-Glo assay)
Format: cell-based
Set-up: endogenous in cells; host or cells: U937 cells
Conditions: CYP1A1 activity readout (Luciferin-CEE), head names VAF347, average, read-out: U937 Antagonist pIC50-VAF347: av. pIC50 (converted)
Experimental readout: log10 IC50 (log10 of the value in nM)
Kindly note that the scale is log10 and the underlying IC50 is in nM.

Would you please look over these solved cases?
Cc1ncc(-c2nc3c(c(N[C@@H]4CCc5[nH]c6ccccc6c5C4)n2)OC[C@@H](CO)N3)s1 ... 2.36
Cc1[nH]c2c(F)cccc2c1CCNc1nc(-c2ccc[nH]c2=O)nc2c1OCCN2 ... 1.29
Oc1ncccc1-c1nc2c(c(NCCc3c[nH]c4cc(OC(F)(F)F)ccc34)n1)OCCN2 ... 0.85
C[C@H]1CNc2nc(-c3cncc(F)c3)nc(NCCc3c[nH]c4ccccc34)c2O1 ... 0.34

Request: Recorded log10 IC50 for `Fc1ccc(-c2nc3c(c(NCCc4c[nH]c5ccccc45)n2)OCCN3)cc1` , please?
Result: 1.40

Request: Report log10 IC50 for `O=c1[nH]cc(Cl)cc1-c1nc2c(c(NCCc3c[nH]c4ccccc34)n1)OCCN2` please.
Result: 1.17

###

Target: hERG (Homo sapiens)
Sequence (Q12809 whole entry): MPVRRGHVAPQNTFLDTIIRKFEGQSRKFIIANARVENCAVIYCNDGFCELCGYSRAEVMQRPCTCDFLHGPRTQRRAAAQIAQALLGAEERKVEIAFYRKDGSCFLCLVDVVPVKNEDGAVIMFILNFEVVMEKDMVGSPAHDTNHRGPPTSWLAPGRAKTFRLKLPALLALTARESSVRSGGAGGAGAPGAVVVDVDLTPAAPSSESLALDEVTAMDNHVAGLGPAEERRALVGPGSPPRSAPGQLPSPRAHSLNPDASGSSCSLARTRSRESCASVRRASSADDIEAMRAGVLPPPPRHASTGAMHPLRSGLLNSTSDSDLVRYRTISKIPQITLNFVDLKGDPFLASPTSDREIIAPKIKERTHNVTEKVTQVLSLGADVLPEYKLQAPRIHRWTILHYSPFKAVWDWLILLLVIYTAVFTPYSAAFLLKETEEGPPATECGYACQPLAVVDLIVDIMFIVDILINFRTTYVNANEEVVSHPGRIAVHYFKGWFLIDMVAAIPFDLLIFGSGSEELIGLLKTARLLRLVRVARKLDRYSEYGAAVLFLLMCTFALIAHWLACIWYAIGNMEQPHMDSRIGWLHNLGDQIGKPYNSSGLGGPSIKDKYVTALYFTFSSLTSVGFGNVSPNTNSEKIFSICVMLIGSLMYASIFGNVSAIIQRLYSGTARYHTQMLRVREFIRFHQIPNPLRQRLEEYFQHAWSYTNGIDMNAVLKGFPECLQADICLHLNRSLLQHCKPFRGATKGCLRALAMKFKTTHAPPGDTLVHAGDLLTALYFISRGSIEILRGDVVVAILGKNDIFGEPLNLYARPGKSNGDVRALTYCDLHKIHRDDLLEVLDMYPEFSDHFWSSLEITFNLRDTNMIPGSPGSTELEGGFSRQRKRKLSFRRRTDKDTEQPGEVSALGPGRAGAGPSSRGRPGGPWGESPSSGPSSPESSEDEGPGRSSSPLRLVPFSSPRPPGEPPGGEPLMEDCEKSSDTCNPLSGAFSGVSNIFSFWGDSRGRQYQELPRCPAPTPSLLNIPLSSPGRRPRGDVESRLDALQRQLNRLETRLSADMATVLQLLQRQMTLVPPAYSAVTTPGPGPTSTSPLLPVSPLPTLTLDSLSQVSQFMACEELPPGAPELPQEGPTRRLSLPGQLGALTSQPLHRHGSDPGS
Experimental readout: pIC50
pIC50 (log units): -log10 of the concentration in mol/L.

Request: Fill blank: measured pIC50 of the compound O=c1[nH]cccc1-c1nc2c(c(OCCc3c[nH]c4ccccc34)n1)OCCN2 [Example 25] is ____.
Result: 5.14

###

Biological target: UniProtKB P35869
Sequence (P35869 11-848): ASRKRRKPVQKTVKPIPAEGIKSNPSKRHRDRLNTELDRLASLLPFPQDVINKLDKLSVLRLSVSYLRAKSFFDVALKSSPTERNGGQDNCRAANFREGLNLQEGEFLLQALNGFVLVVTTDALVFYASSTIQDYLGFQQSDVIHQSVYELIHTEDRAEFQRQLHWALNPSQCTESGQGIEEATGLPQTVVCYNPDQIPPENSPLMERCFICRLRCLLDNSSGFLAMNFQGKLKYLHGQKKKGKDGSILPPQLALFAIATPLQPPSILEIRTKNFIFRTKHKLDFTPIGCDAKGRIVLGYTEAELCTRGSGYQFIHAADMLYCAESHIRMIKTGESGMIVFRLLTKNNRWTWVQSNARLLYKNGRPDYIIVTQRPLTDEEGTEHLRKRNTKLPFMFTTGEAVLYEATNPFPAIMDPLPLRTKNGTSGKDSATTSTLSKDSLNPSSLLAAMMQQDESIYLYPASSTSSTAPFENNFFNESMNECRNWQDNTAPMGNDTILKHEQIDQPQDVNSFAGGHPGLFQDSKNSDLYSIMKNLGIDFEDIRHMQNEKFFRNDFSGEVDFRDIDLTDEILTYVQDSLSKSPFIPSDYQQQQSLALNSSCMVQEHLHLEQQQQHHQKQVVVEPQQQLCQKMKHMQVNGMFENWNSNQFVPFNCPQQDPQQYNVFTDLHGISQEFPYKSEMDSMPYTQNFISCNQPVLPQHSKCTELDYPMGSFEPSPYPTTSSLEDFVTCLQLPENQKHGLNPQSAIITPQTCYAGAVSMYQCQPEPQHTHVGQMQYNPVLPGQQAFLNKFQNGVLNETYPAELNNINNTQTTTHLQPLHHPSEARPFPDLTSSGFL
Experiment: AhR antagonism in human PBMCs - inhibition of IL-22 release
Format: cell-based
Set-up: endogenous in cells
Conditions: human PBMCs activated with CD3/CD28 agonist mixture, 72 hrs, IL-22 ELISA; average; read-out: hPBMC Inhibition of CD3/CD28 induced IL-22 release: av. pIC50 (converted)
Here the recorded IC50 is given for each entry.
Write the answer as a number in nM, unit excluded.

Request: Provide value of IC50 for this record tested with UniProtKB P35869: Cc1ncc(-c2nc3c(c(N[C@@H]4Cc5cccc6[nH]cc(c56)C4)n2)OCCN3)s1 (single isomer, unassigned) [Example 61]
Result: 1260

Request: So what IC50 did Fc1cncc(-c2nc3c(c(NCCc4c[nH]c5ccccc45)n2)OCCN3)c1 [Example 1] get with UniProtKB P35869?
Result: 1.91

Request: Item Cc1ncc(-c2nc3c(c(N[C@H]4Cc5cccc6[nH]cc(c56)C4)n2)OCCN3)s1 (single isomer, unassigned) [Example 62] with UniProtKB P35869 - IC50?
Result: 132

Request: # returns recorded IC50 (system: UniProtKB P35869) for COC[C@@H]1COc2c(N[C@@H]3CCc4[nH]c5ccccc5c4C3)nc(-c3cnc(C)s3)nc2N1CCN(C)C [Example 35]
Result: 977
